Where do the numbers come from? From patent US7022711B2.

- PROTOCOL_SUMMARY: Caco-2 cell transport (permeability) study
- RECORDED_CONDITIONS: human
READOUT_KIND: Papp A→B (×10⁻⁶ cm/s)
// units = ×10⁻⁶ cm/s; emit number, no label

Data request: Could you please provide reported Papp A→B for CCN(CC)CCOc1ccc(Nc2ncc3cc(-c4cc(OC)cc(OC)c4)c(=O)n(C)c3n2)cc1 [Reference B, reference compound] ? Thanks!
Data returned: 20.1

----------
Measured melting point accompanies every entry in the list below.

Consider the following illustrative entries.
>  <RECORD_SMILES>
CCn1c(=O)c(-c2cc(OC)cc(OC)c2)cc2cnc(Nc3ccnc(C)c3)nc21

>  <melting point>
> 300 °C

$$$$
>  <RECORD_SMILES>
CCn1c(=O)c(-c2c(Cl)c(OC)cc(OC)c2Cl)cc2cnc(Nc3ccncc3)nc21

>  <melting point>
295.5 to 297 °C

$$$$
>  <RECORD_SMILES>
COc1cc(OC)cc(-c2cc3cnc(Nc4ccncc4)nc3n(C)c2=O)c1

>  <melting point>
245 to 247 °C

$$$$

Data request: Give recorded melting point. "COc1cc(OC)cc(-c2cc3cnc(Nc4ccncc4)nc3n(C3CCCC3)c2=O)c1"
Data returned: 283 to 285 °C
